Listed next: entries and their corresponding melting point.
metricName: melting point

>>> df
                                   compound         result
0  CC(=O)N1CCN2Cc3cc(/C=C/C(=O)N4CC5C=C(c6cccs6)CC5C4)cnc3NC(=O)C2C1 (stereo not shown)  215 to 230 °C
1  CC(=O)N1CCN2C(=O)c3cc(/C=C/C(=O)N4CC5C=C(c6ccccc6)CC5C4)cnc3NC(=O)C2C1 (stereo not shown)  262 to 264 °C
2  O=C1Nc2ncc(/C=C/C(=O)N3CC4C=C(c5ccccc5)CC4C3)cc2Cn2cncc21 (stereo not shown)  220 to 270 °C
3  CCOC(=O)N1CCN2Cc3cc(/C=C/C(=O)N4CC5C=C(c6ccccc6)CC5C4)cnc3NC(=O)C2C1 (stereo not shown)  242 to 267 °C
